Molecular target: Glutamate receptor ionotropic, NMDA 2B (Rattus norvegicus)
Test: Displacement of [3H]Ro25-6981 from NR2B NMDA receptor in rat forebrain membrane
MEASURE_NAME: log10 IC50 (log10 of the value in nM)
Would you kindly interpret these values as log10 of IC50 expressed in nM?

Nc1ccc2[nH]c(C(=O)N3CCC(Cc4ccccc4)CC3)nc2c1 | 2.16
O=c1[nH]c2ccc([S+]([O-])CCN3CCC(Cc4ccc(F)cc4)CC3)cc2o1 (stereo unspecified) | 0.60
Cc1cccc(CC2CCN(C(=O)c3nc4ccc(O)cc4[nH]3)CC2)c1 | 0.70
CS(=O)(=O)Nc1ccc2nc(CN3CCC(Cc4ccccc4)CC3)[nH]c2c1 | 0.54
O=C(c1nc2c(O)cccc2[nH]1)N1CCC(Cc2ccccc2)CC1 | 1.00

Entry under review: `O=C(c1nc2ccc(O)cc2[nH]1)N1CCC(Cc2ccccc2)CC1` . Reported log10 IC50?
0.60

---

Biological target: Glutamate receptor ionotropic, NMDA 2B (Rattus norvegicus, UniProt Q00960)
Sequence (Q00960 whole entry): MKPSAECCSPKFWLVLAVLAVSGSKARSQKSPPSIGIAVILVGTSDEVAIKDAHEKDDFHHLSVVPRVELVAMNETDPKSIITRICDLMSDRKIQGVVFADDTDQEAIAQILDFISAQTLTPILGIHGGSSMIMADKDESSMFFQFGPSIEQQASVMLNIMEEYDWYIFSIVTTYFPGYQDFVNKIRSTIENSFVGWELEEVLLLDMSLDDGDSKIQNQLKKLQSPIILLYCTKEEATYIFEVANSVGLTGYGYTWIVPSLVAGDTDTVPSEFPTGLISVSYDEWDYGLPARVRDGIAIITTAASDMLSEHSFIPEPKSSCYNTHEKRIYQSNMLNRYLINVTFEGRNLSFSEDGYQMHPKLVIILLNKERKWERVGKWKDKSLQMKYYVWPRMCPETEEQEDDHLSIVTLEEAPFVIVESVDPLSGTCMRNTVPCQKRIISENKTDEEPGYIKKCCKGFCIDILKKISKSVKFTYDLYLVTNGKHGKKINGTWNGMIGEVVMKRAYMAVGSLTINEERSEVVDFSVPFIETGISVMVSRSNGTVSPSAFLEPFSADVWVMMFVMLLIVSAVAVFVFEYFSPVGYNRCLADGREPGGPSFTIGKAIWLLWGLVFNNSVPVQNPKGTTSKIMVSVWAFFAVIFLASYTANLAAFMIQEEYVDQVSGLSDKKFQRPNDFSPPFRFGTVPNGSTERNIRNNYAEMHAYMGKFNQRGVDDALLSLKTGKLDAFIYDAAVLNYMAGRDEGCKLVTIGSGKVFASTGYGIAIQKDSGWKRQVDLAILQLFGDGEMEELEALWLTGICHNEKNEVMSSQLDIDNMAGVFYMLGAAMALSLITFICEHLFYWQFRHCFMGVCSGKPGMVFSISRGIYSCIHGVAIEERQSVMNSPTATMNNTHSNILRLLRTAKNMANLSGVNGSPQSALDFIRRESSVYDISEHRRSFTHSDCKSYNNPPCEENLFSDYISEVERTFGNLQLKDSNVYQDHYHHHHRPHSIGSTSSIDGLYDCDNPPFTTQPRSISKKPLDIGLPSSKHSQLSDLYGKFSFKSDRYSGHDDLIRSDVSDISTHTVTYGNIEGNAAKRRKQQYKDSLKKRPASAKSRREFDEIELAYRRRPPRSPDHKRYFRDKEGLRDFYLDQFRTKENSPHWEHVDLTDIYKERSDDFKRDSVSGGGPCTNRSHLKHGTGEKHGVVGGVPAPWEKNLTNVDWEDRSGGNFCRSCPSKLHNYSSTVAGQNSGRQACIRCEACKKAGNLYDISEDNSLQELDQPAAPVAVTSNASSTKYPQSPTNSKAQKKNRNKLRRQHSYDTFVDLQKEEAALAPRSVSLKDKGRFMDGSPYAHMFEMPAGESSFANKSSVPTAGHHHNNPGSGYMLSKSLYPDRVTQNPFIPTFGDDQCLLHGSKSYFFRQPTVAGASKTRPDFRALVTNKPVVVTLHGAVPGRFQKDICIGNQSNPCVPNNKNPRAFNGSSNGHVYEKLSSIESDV
Experiment: Displacement of [3H]Ro25-6981 from NR2B NMDA receptor in rat forebrain membrane
// boundary case: IC50 equal to 6 nM maps to NO; strictly smaller maps to YES

Field: example entries. Status: answers known.
O=C(c1nc2ccc(O)cc2[nH]1)N1CCC(Cc2cccc(F)c2)CC1 | YES
CS(=O)(=O)Nc1ccc2[nH]c(C(=O)N3CCC(Cc4ccccc4)CC3)nc2c1 | YES
O=C(c1nc2ccc(O)cc2[nH]1)N1CCC(Cc2ccc(F)cc2)CC1 | YES

I wonder whether `Cc1ccccc1CC1CCN(C(=O)c2nc3cc(O)ccc3[nH]2)CC1` has IC50 below 6 nM. Can you tell?
NO

Also, `COc1cccc(CC2CCN(C(=O)c3nc4ccc(O)cc4[nH]3)CC2)c1` please.
YES

Same again, this time with `Cc1ccc(OC2CCN(C(=O)c3nc4ccc(O)cc4[nH]3)CC2)cc1`
YES

Please answer likewise for `Cc1ccc(CC2CCN(C(=O)c3nc4ccc(O)cc4[nH]3)CC2)cc1`
YES

Request: `O=C(c1nc2ccc(O)cc2[nH]1)N1CCC(Oc2ccc(Cl)cc2)CC1`
NO

---

Biological target: Glutamate NMDA receptor
Assay: Inhibition of NMDA-evoked increase in intracellular calcium ion in rat cortical cells
Attribute: IC50
Your answer should be a plain number; it is taken to be in nM.

Observed IC50 on Glutamate NMDA receptor for `Cc1ccc(OC2CCN(C(=O)c3nc4ccc(O)cc4[nH]3)CC2)cc1` , please.
1.1

Similarly, `Cc1ccccc1CC1CCN(C(=O)c2nc3cc(O)ccc3[nH]2)CC1` ?
12

---

Biological target: Glutamate NMDA receptor
Test: Inhibition of NMDA-evoked increase in intracellular calcium ion in rat cortical cells
pIC50: −log10 of the molar value.
Param threshold (8) applies to pIC50; output True when value >= threshold, False when value < threshold.

CS(=O)(=O)Nc1ccc2[nH]c(C(=O)N3CCC(Cc4ccccc4)CC3)nc2c1 | True
O=C(c1nc2ccc(O)cc2[nH]1)N1CCC(Cc2ccc(F)cc2)CC1 | True
O=C(c1nc2ccc(O)cc2[nH]1)N1CCC(Oc2ccc(Cl)cc2)CC1 | True
Nc1ccc2[nH]c(C(=O)N3CCC(Cc4ccccc4)CC3)nc2c1 | False
COc1cccc(CC2CCN(C(=O)c3nc4ccc(O)cc4[nH]3)CC2)c1 | True
Cc1cccc(CC2CCN(C(=O)c3nc4ccc(O)cc4[nH]3)CC2)c1 | True

Quick check: does `O=C(c1nc2ccc(O)cc2[nH]1)N1CCC(Oc2ccc(F)cc2)CC1` have pIC50 greater than or equal to 8?
True

Now give it for `C[C@@H](CN1CCC(Cc2ccccc2)CC1)[C@@H](O)c1ccc(O)cc1` too.
False

Follow-up item: `O=C(c1nc2c(O)cccc2[nH]1)N1CCC(Cc2ccccc2)CC1`
True

Provenance of the data: ChEMBL document CHEMBL1148684
